system_name: HSC70 (bovine, UniProt P19120)
Sequence (P19120 2-650): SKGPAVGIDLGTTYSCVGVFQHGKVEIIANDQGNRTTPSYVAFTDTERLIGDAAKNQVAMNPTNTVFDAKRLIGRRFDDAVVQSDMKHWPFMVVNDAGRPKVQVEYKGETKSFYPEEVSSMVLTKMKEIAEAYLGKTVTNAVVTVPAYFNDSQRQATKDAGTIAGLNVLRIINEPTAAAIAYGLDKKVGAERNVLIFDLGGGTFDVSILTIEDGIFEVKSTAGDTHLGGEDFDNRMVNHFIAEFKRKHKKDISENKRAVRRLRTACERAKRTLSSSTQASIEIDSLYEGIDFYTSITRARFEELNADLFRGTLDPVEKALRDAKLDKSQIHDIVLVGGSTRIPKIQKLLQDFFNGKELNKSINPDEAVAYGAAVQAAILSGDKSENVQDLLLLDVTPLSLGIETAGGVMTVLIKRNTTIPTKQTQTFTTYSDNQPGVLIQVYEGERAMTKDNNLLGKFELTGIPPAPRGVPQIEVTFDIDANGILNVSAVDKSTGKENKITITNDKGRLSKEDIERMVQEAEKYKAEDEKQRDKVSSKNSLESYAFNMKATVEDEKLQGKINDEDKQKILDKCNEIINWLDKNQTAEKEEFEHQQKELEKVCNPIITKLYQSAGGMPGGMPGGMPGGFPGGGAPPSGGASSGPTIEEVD
test: SPR, 25C pH 7.4
Square brackets hold non-standard residues; d marks the D form. Ends that are not written are not given here. Met(O) = CS(=O)CC[C@H](N)C(=O)O; pS = N[C@@H](COP(=O)(O)O)C(=O)O

binder	Kd
RIH[Met(O)]VYSKR[pS]GKPRGYAFIEY [P140(MO)]	1910 nM
